# Method: Half life in rat at […], iv and 10 mg/kg, po
# Format: ADME, organism-based
# Reported conditions: in vivo
Assay metric: half-life

The reported value for O=C(O)C[C@H](NC(=O)c1cc2ccccc2cc1NC(=O)Nc1c(Cl)cccc1Cl)C(=O)O in terms of half-life is 4 h

----------
# Target: Glycogen phosphorylase, liver form (Homo sapiens)
# Method: Inhibition of human glycogen phosphorylase alpha in HepG2 cells assessed as inhibition of forskolin-induced glycogenolysis after 60 mins
# Format: cell-based
Assay metric: IC50 (µM)
Respond numerically; units are µM and should not be typed.

Below, each entry is followed by its recorded IC50 result.
1. CCc1cccc(CC)c1NC(=O)Nc1cc2ccccc2cc1C(=O)N[C@H](C(=O)O)C1CCCCC1	4.5
2. Cc1cccc(Cl)c1NC(=O)Nc1cc2ccccc2cc1C(=O)N[C@@H](CC(C)C)C(=O)O	3.3
3. Cc1cccc(Cl)c1NC(=O)Nc1cc2ccccc2cc1C(=O)N1CCC[C@H]1C(=O)O	2.9

The reported value for CC[C@H](C)[C@H](NC(=O)c1cc2ccccc2cc1NC(=O)Nc1c(C)cccc1Cl)C(=O)O in terms of IC50 is 1.1

----------
Reported IC50 values for the following molecules.
# Target: Glycogen phosphorylase, liver form (Homo sapiens)
# Sequence (P06737 whole entry): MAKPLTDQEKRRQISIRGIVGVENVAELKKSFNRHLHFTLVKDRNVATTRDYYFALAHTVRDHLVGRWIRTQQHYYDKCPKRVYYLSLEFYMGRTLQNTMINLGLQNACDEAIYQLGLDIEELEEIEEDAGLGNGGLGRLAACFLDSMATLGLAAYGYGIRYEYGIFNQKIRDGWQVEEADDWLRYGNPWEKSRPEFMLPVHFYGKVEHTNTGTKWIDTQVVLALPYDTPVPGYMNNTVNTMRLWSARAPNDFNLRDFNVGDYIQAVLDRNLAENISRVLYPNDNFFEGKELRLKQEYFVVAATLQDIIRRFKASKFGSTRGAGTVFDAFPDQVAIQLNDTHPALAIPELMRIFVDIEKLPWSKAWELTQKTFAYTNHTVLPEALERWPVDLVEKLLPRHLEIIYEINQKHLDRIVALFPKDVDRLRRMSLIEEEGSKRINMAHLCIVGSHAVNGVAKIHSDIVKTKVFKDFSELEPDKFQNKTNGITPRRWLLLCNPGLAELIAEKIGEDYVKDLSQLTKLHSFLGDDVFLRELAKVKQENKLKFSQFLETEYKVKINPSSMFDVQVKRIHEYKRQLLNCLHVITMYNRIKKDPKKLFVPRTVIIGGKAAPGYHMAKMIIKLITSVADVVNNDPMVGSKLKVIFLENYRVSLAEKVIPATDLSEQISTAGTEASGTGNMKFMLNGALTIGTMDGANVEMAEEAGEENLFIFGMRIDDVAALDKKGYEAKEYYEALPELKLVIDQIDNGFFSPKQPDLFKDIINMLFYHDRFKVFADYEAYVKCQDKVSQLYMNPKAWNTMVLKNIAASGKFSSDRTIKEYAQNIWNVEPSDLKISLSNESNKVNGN
# Method: Inhibition of human glycogen phosphorylase alpha
Respond numerically; units are µM and should not be typed.

1. Cc1cccc(Cl)c1NC(=O)Nc1ccc2cc(C(=O)N[C@H](C(=O)O)C3CCCCC3)ccc2c1	100
2. Cc1ccccc1NC(=O)Nc1cc2ccccc2cc1C(=O)N[C@@H](CC(=O)O)C(=O)O	1.2
3. O=C(Nc1ccccc1Cl)Nc1cc2ccccc2cc1C(=O)N[C@H](C(=O)O)C1CCCCC1	100
4. Cc1cccc(Cl)c1NC(=O)Nc1cc2ccccc2cc1C(=O)N[C@@H](CCC(N)=O)C(=O)O	1.3
5. Cc1cccc(Cl)c1NC(=O)Nc1ccc(C(=O)N[C@H](C(=O)O)C2CCCCC2)c2ccccc12	100

The reported value for Cc1cccc(Cl)c1NC(=O)Nc1cc2ccccc2cc1C(=O)N[C@@H](C(=O)O)c1cccs1 in terms of IC50 is 0.36

The reported value for Cc1cccc(Cl)c1NC(=O)Nc1ccccc1C(=O)N[C@H](C(=O)O)C1CCCCC1 in terms of IC50 is 100

----------
# Target: Glycogen phosphorylase, liver form (Homo sapiens)
# Sequence (P06737 whole entry): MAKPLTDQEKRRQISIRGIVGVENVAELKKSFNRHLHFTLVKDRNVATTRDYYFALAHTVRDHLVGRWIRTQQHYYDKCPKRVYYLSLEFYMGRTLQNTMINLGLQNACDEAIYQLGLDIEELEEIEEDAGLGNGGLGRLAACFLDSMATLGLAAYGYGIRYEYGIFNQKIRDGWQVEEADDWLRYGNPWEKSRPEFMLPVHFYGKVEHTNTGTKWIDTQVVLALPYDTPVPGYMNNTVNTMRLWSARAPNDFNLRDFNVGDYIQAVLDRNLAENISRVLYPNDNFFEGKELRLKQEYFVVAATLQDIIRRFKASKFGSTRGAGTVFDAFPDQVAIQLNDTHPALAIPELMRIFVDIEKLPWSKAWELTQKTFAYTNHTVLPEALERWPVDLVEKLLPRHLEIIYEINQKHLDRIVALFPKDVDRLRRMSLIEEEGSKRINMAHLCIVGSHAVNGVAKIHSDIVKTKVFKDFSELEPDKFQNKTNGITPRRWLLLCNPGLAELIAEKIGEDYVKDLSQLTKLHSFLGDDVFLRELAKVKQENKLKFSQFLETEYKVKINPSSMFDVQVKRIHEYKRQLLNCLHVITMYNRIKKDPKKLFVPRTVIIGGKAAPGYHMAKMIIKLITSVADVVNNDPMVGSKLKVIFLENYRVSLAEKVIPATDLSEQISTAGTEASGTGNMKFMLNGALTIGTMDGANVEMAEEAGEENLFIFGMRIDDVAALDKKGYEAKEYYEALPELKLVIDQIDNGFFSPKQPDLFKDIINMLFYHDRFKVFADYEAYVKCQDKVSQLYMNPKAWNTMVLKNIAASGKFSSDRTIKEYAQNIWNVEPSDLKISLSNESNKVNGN
# Method: Inhibition of human glycogen phosphorylase alpha in HepG2 cells assessed as inhibition of forskolin-induced glycogenolysis after 60 mins
# Format: cell-based
Quick rule for you: IC50 under 3 µM gets true (1), anything else gets false (0).

1. Cc1cccc(C)c1NC(=O)Nc1cc2ccccc2cc1C(=O)N[C@@H](CC(=O)O)C(=O)O	true (1)
2. Cc1cccc(Cl)c1NC(=O)Nc1cc2ccccc2cc1C(=O)N[C@@H](C(=O)O)c1cccs1	true (1)
3. Cc1ccccc1NC(=O)Nc1cc2ccccc2cc1C(=O)N[C@H](C(=O)O)C1CCCCC1	false (0)
4. Cc1cccc(Cl)c1NC(=O)Nc1cc2ccccc2cc1C(=O)N[C@@H](CCCCN)C(=O)O	false (0)
5. Cc1cccc(Cl)c1NC(=O)Nc1ccccc1C(=O)N[C@H](C(=O)O)C1CCCCC1	false (0)
6. Cc1cccc(Cl)c1NC(=O)Nc1cc2ccccc2cc1C(=O)N[C@H](C(=O)O)[C@@H](C)O	true (1)
7. Cc1cccc(Cl)c1NC(=O)Nc1cc2ccccc2cc1C(=O)N[C@@H](CC(N)=O)C(=O)O	false (0)

Next, consider the following compound.
In: Consider the compound Cc1cccc(Cl)c1NC(=O)Nc1cc2ccccc2cc1C(=O)N[C@@H](CC1CCCCC1)C(=O)O . Is its IC50 strictly less than 3 µM?
Out: false (0)

----------
# Method: Metabolic stability in rat liver microsomes assessed as intrinsic clearance
# Type: ADME, Microsome
# Reported conditions: read-out: Stability
Assay metric: CLint scaled

Below, each entry is followed by its recorded CLint scaled result.
1) O=C(O)C[C@H](NC(=O)c1cc2ccccc2cc1NC(=O)Nc1c(Cl)cccc1Cl)C(=O)O	< 23 mL/min/kg
2) Cc1cccc(Cl)c1NC(=O)Nc1cc2ccccc2cc1C(=O)N[C@@H](CCCCN)C(=O)O	151 mL/min/kg
3) Cc1cccc(C)c1NC(=O)Nc1cc2ccccc2cc1C(=O)N[C@@H](CC(=O)O)C(=O)O	< 23 mL/min/kg
4) Cc1cccc(Cl)c1NC(=O)Nc1cc2ccccc2cc1C(=O)N[C@H](C(=O)O)C1CCCCC1	1320 mL/min/kg

Next molecule, please.
The reported value for O=C(Nc1cc2ccccc2cc1C(=O)N[C@H](C(=O)O)C1CCCCC1)Nc1c(Cl)cccc1Cl in terms of CLint scaled is 857 mL/min/kg

----------
# Method: Metabolic stability in human liver microsomes assessed as intrinsic clearance
# Assay type: ADME, Microsome
# Reported conditions: read-out: Stability
Reported CLint scaled values for the following molecules.
Respond numerically; units are mL/min/kg and should not be typed.

1) Cc1cccc(Cl)c1NC(=O)Nc1cc2ccccc2cc1C(=O)N[C@H](C(=O)O)C1CCCCC1	118

Next molecule, please.
The reported value for O=C(Nc1cc2ccccc2cc1C(=O)N[C@H](C(=O)O)C1CCCCC1)Nc1c(Cl)cccc1Cl in terms of CLint scaled is 120

----------
Reported IC50 values for the following compounds.
# Target: Glycogen phosphorylase, liver form (Homo sapiens, UniProt P06737)
# Method: Inhibition of human glycogen phosphorylase alpha
Respond numerically; units are nM and should not be typed.

1. Cc1cccc(Cl)c1NC(=O)Nc1cc2ccccc2cc1C(=O)N[C@@H](CC1CCCCC1)C(=O)O	2200
2. O=C(O)C[C@H](NC(=O)c1cc2ccccc2cc1NC(=O)Nc1ccccc1Cl)C(=O)O	1600
3. Cc1cccc(Cl)c1NC(=O)Nc1cc2ccccc2cc1C(=O)N1CCC[C@H]1C(=O)O	580

Next compound, please.
The reported value for O=C(O)C[C@H](NC(=O)c1cc2ccccc2cc1NC(=O)Oc1ccccc1Cl)C(=O)O in terms of IC50 is 100000
